Tested on: Xanthomonas campestris pv. campestris (Xcc) ATCC 33913
Experiment: Minimal inhibitory concentration (MIC) assay
Type: cell-based
Conditions: 24 h, 28° C., ND = non-detected at tested concentrations (up to 200 μg/ml)
Square brackets hold non-standard residues; d marks the D form. Peptide text beside a SMILES is read from it. * marks the point of attachment. Palmitoyl = CCCCCCCCCCCCCCCC(=O)*
RECORDED METRIC: Average MIC (µg/mL)

>>> measured_result("CCCCCCCCCCCCCCCC(=O)N[C@@H](Cc1ccccc1)C(=O)N[C@H](CCCCN)C(=O)N[C@H](CCCCN)C(=O)N[C@H](CCCCN)C(=O)N[C@@H](Cc1ccccc1)C(N)=O [lipopeptide #10, p-FkkkF] (Palmitoyl-F[dK][dK][dK]F-NH2)")
6
>>> measured_result("CCCCCCCCCCCCCCCC(=O)N[C@H](CCCCN)C(=O)N[C@H](CCCCN)C(=O)N[C@@H](Cc1ccccc1)C(=O)N[C@H](CCCCN)C(=O)N[C@@H](Cc1ccccc1)C(N)=O [lipopeptide #8, p-kkFkF] (Palmitoyl-[dK][dK]F[dK]F-NH2)")
6
